- System: U2OS
- ASSAY TEXT: Incucyte cell viability with U2OS; further: unitless GR value; below 1 slowed growth and below 0 cell loss
- Format: toxicity, cell-based
- TEST PARAMETERS: human, 6 h, 10 µM, compound concentration 10 uM, replicate number 2
Reported values of Growth Rate for individual entries
RECORDED ENDPOINT: Growth Rate

| MOLECULE | RECORDED ENDPOINT | DATA VALUE |
| --- | --- | --- |
| COc1cc(-c2cn(C)c(=O)c3cnccc23)cc(OC)c1CN(C)C | Growth Rate | 0.61 |
| Cc1nccn1-c1ccc(Sc2cccc(C3(C(N)=O)CCOCC3)c2)cc1 | Growth Rate | 0.9 |
| CCn1c(CNC(=O)c2ncc(C)nc2N)[n+](CC)c2ccc(C(=O)N(C)CCN(C)C)cc21.Cl.Cl.[Cl-] | Growth Rate | 0.99 |
| COC[C@@H](C)N[C@H]1CC[C@H](Nc2cc(-c3cccc(NCC4(C#N)CCOCC4)n3)c(Cl)cn2)CC1 | Growth Rate | 0.56 |
| COc1cc(CN(CCN)C(=O)N[C@@H](C)c2ccccc2)ccc1OCc1ccccc1.Cl | Growth Rate | 0.82 |
| COc1ccc(CC[C@@H](OC(=O)[C@H]2CCCCN2C(=O)[C@@H](c2cc(OC)c(OC)c(OC)c2)C2CCCCC2)c2cccc(OCCN3CCOCC3)c2)cc1OC | Growth Rate | -0.94 |
| CN(C)c1cc2c(Nc3ccc4c(cnn4Cc4ccccc4)c3)ncnc2cn1 [GW282974X] | Growth Rate | 0.77 |
| O=C1c2c(Br)c(Br)c(Br)c(Br)c2C(=O)N1c1ncc[nH]1 | Growth Rate | 0.25 |
| CC(=O)NCC(=O)N1[C@@H]2CC[C@H]1c1ccc(Nc3ncc(C(F)(F)F)c(NC4CCC4)n3)cc12 [PF-03814735] | Growth Rate | 1 |
| CCCCCCCC/C=C\CCCCCCCC(=O)NCCO [OLEOYLETHANOLAMIDE] | Growth Rate | 0.54 |
| CCOC(=O)C1=C(C)NC(C)=C(C(=O)OC)C1c1cccc([N+](=O)[O-])c1 (stereo not given) [NITRENDIPINE] | Growth Rate | 0.51 |
| O=C1NC(c2cccc([N+](=O)[O-])c2)=CCN1c1ccccc1O [ICILLIN] | Growth Rate | 0.82 |
| C[C@@H]1CC[C@@]2(OC1)O[C@H]1[C@@H](O)[C@H]3[C@@H]4CC[C@H]5C[C@@H](O[C@@H]6O[C@H](CO)[C@H](O[C@@H]7O[C@H](CO)C(O)[C@H](O[C@@H]8OC[C@@H](O)[C@H](O)[C@H]8O)[C@H]7O[C@@H]7O[C@H](CO)[C@H](O)[C@H](O[C@@H]8O[C@H](CO)[C@@H](O)[C@H](O)[C@H]8O)[C@H]7O)[C@H](O)[C@H]6O)[C@H](O)C[C@]5(C)[C@H]4CC[C@]3(C)[C@H]1[C@@H]2C (stereo not given in full) [DIGITONIN] | Growth Rate | 0.68 |
| COc1ccc(F)c(F)c1C(=O)c1cnc(NC2CCN(S(C)(=O)=O)CC2)nc1N [RG-547] | Growth Rate | 0.23 |
| CCNC1=N[C@@H]2[C@@H](O)[C@H](O)[C@@H](CO)O[C@@H]2S1 | Growth Rate | 0.45 |
